- experimental-target: T1, soluble recombinant G protein (amino acids 66-292 of the 18537 strain sequence) (RSV strain 18537 (subtype B), UniProt P20896 66-292)
- T1 construct: also called G(B); recombinant protein G
- T1 sequence: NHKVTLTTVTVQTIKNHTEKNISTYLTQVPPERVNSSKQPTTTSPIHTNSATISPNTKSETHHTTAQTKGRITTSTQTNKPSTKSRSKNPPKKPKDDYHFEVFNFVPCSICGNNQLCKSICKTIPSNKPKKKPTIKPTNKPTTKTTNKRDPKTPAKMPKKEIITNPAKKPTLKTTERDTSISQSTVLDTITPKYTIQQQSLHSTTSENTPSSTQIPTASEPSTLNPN
- test-details: SPR (Biacore 3000), Fab over immobilised recombinant antigen;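 note: antigen immobilised on CM5 chip at very low density (about 50 RU), rate constants fitted globally with a 1:1 Langmuir model, Fabs obtained by enzymatic cleavage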
observed-property: t1/2 (h)
Note: unit h is implicit; provide only the numeric part.

- binder: "Fab fragment of antibody from clone 853 (Fab, V domains shown, also called Fab clone 853; 853 (G)) VH: EVQLVQSGAEVKKPGQSLKISCKTSGYIFTNYWIGWVRQRPGKGLEWMGVIFPADSDARYSPSFQGQVTISADKSIGTAYLQWSSLKASDTAIYYCARPKYYFDSSGQFSEMYYFDFWGQGTLVTVSS VL: EIVLTQSPGTLSLSPGERATLSCRASQSVSSNYLAWYQQKPGQAPRLLIYGASSRAAGMPDRFSGSGSGTDFTLTISRLEPEDFAVYYCQQYGNSPLTFGGGTEVEIKR"
  observed-property: "t1/2"
  assay-value: 0.138

stdin: Which t1/2 value belongs to Fab fragment of antibody from clone 838 (Fab, V domains shown, also called Fab clone 838; 838 (G)) VH: QVQLVESGGGVVQPGTSLRLSCAASGFTFSTFGMHWVRQAPGKGLEWVAVISYDGNKKYYADSVKGRFTISRDNSKNTLYLQVNSLRVEDTAVYYCAAQTPYFNESSGLVPDWGQGTLVTVSS VL: DIQMTQSPSSLSASVGDRVSITCRASQGISNYLAWYQQKPGKVPKLLIYAASTLQSGVPSRFSGSGSGTDFTLTISSLQPEDVATYYCQKYNSAPQTFGQGTKVEIKR ?
stdout: 3.83

stdin: Which t1/2 value belongs to Fab fragment of antibody from clone 811 (Fab, V domains shown, also called Fab clone 811; 811 (G)) VH: QVQLVQSGAVVETPGASVKVSCKASGYIFGNYYIHWVRQAPGQGLEWMAVINPNGGSTTSAQKFQDRITVTRDTSTTTVYLEVDNLRSEDTATYYCARQRSVTGGFDAWLLIPDASNTWGQGTMVTVSS VL: DIVMTQSPDSLAVSLGERATINCRSSETVLYTSKNQSYLAWYQQKARQPPKLLLYWASTRESGVPARFSGSGSGTDFTLAISSLQAEDVAVYYCQQFFRSPFTFGPGTRLEIKR ?
stdout: 1.13
